species on record: Rattus norvegicus; assay: Open TG-GATES - Regimen: Single; type: toxicity, organism-based, Sprague-Dawley; design: regimen Single, gender Male, age 6 weeks; conditions: in vivo, po, 100 mg/kg, 6 h, tissue Plasma, route gavage, dose level Low
Below, each entry is listed with its recorded Na.
Your answer should be a plain number; it is taken to be in meq/L.

Value of Na reported for the compound CCc1cc(C(N)=S)ccn1 [ETHIONAMIDE] is 140.4

Value of Na reported for the compound O=C(O)c1cc(/N=N/c2ccc(S(=O)(=O)Nc3ccccn3)cc2)ccc1O is 140.2

Value of Na reported for the compound Clc1ccccc1CN1CCc2sccc2C1 is 141.4

Value of Na reported for the compound O=C(O)c1cn(C2CC2)c2cc(N3CCNCC3)c(F)cc2c1=O is 138.8

Value of Na reported for the compound C[C@H](CS)C(=O)N1CCC[C@H]1C(=O)O is 138.6

###

species: Rattus norvegicus; assay: Open TG-GATES - Regimen: Single; assay type: toxicity, organism-based, Sprague-Dawley; set-up: regimen Single, gender Male, age 6 weeks; conditions: in vivo, po, 1000 mg/kg, 3 h, tissue Plasma, route gavage, dose level High
QUANTITY NAME: TC (mg/dL)
Your answer should be a plain number; it is taken to be in mg/dL.

O=C(O)c1cc(/N=N/c2ccc(S(=O)(=O)Nc3ccccn3)cc2)ccc1O	76
CCc1cc(C(N)=S)ccn1 [ETHIONAMIDE]	78.6
Clc1ccccc1CN1CCc2sccc2C1	69.8
C[C@H](CS)C(=O)N1CCC[C@H]1C(=O)O	79.4

--- query ---
Value of TC reported for the compound O=C(O)c1cn(C2CC2)c2cc(N3CCNCC3)c(F)cc2c1=O is 81.2

###

species on record: Rattus norvegicus; test: Open TG-GATES - Regimen: Single; type: toxicity, organism-based, Sprague-Dawley; design: regimen Single, gender Male, age 6 weeks; conditions: in vivo, po, 1000 mg/kg, 3 h, tissue Blood, route gavage, dose level High
Below, each entry is listed with its recorded Eos.
Your answer should be a plain number; it is taken to be in %.

Some entries whose results are on file:
CCc1cc(C(N)=S)ccn1 [ETHIONAMIDE]	1
O=C(O)c1cc(/N=N/c2ccc(S(=O)(=O)Nc3ccccn3)cc2)ccc1O [SULFASALAZINE]	1
C[C@H](CS)C(=O)N1CCC[C@H]1C(=O)O [CAPTOPRIL]	1
O=C(O)c1cn(C2CC2)c2cc(N3CCNCC3)c(F)cc2c1=O [CIPROFLOXACIN]	0.4

Value of Eos reported for the compound Clc1ccccc1CN1CCc2sccc2C1 [TICLOPIDINE] is 1

###

species: Rattus norvegicus; assay: Open TG-GATES - Regimen: Single; type: toxicity, organism-based, Sprague-Dawley; parameters: regimen Single, gender Male, age 6 weeks; conditions: in vivo, po, 300 mg/kg, 24 h, tissue Plasma, route gavage, dose level Middle
Below, each entry is listed with its recorded K.
Your answer should be a plain number; it is taken to be in meq/L.

Some entries whose results are on file:
C[C@H](CS)C(=O)N1CCC[C@H]1C(=O)O	4.9
O=C(O)c1cc(/N=N/c2ccc(S(=O)(=O)Nc3ccccn3)cc2)ccc1O	3.9
Clc1ccccc1CN1CCc2sccc2C1	4
CCc1cc(C(N)=S)ccn1 [ETHIONAMIDE]	4.5

--- query ---
Value of K reported for the molecule O=C(O)c1cn(C2CC2)c2cc(N3CCNCC3)c(F)cc2c1=O is 4.7

###

Below, each entry is listed with its recorded Ca.
species: Rattus norvegicus; experiment: Open TG-GATES - Regimen: Single; assay type: toxicity, organism-based, Sprague-Dawley; parameters: regimen Single, gender Male, age 6 weeks; conditions: in vivo, po, 1000 mg/kg, 24 h, tissue Plasma, route gavage, dose level High
Just so you know, I need the unit written after the number.

O=C(O)c1cn(C2CC2)c2cc(N3CCNCC3)c(F)cc2c1=O [CIPROFLOXACIN]	11.3 mg/dL
CCc1cc(C(N)=S)ccn1 [ETHIONAMIDE]	10.3 mg/dL
O=C(O)c1cc(/N=N/c2ccc(S(=O)(=O)Nc3ccccn3)cc2)ccc1O [SULFASALAZINE]	10.7 mg/dL

Value of Ca reported for the compound C[C@H](CS)C(=O)N1CCC[C@H]1C(=O)O [CAPTOPRIL] is 11.1 mg/dL

###

species on record: Rattus norvegicus; experiment: Open TG-GATES - Regimen: Daily Repeat; assay type: toxicity, organism-based, Sprague-Dawley; design: regimen Daily Repeat, gender Male, age 6 weeks; details: in vivo, po, 0 mg/kg, […], tissue Blood, route gavage, dose level Control, time 14 day
QUANTITY NAME: Ht (%)
Your answer should be a plain number; it is taken to be in %.

Some entries whose results are on file:
CO[C@H]1/C=C/O[C@@]2(C)Oc3c(C)c(O)c4c(O)c(c(/C=N/N5CCN(C)CC5)c(O)c4c3C2=O)NC(=O)/C(C)=C\C=C\[C@H](C)[C@H](O)[C@@H](C)[C@@H](O)[C@@H](C)[C@H](OC(C)=O)[C@@H]1C [RIFAMPIN]	45
CN(C)CCC=C1c2ccccc2CCc2ccccc21 [AMITRIPTYLINE]	41.5
COc1ccc(Cc2nccc3cc(OC)c(OC)cc23)cc1OC [PAPAVERINE]	42.7

Value of Ht reported for the molecule CCc1cc(C(N)=S)ccn1 [ETHIONAMIDE] is 43.6

Value of Ht reported for the molecule Clc1ccccc1CN1CCc2sccc2C1 [TICLOPIDINE] is 39.5

Value of Ht reported for the molecule CC(=O)Oc1ccccc1C(=O)O [ASPIRIN] is 40.6

Value of Ht reported for the molecule Cn1c(=O)c2[nH]cnc2n(C)c1=O.O [THEOPHYLLINE] is 42.5

Value of Ht reported for the molecule O=C(O)c1cn(C2CC2)c2cc(N3CCNCC3)c(F)cc2c1=O [CIPROFLOXACIN] is 42.3

Value of Ht reported for the molecule O=C(O)c1cc(/N=N/c2ccc(S(=O)(=O)Nc3ccccn3)cc2)ccc1O [SULFASALAZINE] is 41.7

Value of Ht reported for the molecule NC(=O)N1c2ccccc2C=Cc2ccccc21 [CARBAMAZEPINE] is 41.7

Value of Ht reported for the molecule CSc1ccc2c(c1)N(CCC1CCCCN1C)c1ccccc1S2 (stereo not given) [THIORIDAZINE] is 42.9

Value of Ht reported for the molecule CCCC(CCC)C(=O)O [VALPROIC ACID] is 40.9

Value of Ht reported for the molecule COc1ccc2c(c1)c(CC(=O)O)c(C)n2C(=O)c1ccc(Cl)cc1 [INDOMETHACIN] is 41.7

Value of Ht reported for the molecule NC(=O)N/N=C/c1ccc([N+](=O)[O-])o1 [NITROFURAZONE] is 41.4

Value of Ht reported for the molecule C[C@H](CS)C(=O)N1CCC[C@H]1C(=O)O [CAPTOPRIL] is 43.1

###

Below, each entry is listed with its recorded LIVER.
organism: Rattus norvegicus; assay: Open TG-GATES - Regimen: Single; assay type: toxicity, organism-based, Sprague-Dawley; parameters: regimen Single, gender Male, age 6 weeks; conditions: in vivo, po, 300 mg/kg, 24 h, tissue Liver, route gavage, dose level Middle
Your answer should be a plain number; it is taken to be in g.

O=C(O)c1cc(/N=N/c2ccc(S(=O)(=O)Nc3ccccn3)cc2)ccc1O	10.6
O=C(O)c1cn(C2CC2)c2cc(N3CCNCC3)c(F)cc2c1=O	8.5
Clc1ccccc1CN1CCc2sccc2C1	9.5
C[C@H](CS)C(=O)N1CCC[C@H]1C(=O)O	11.6

--- query ---
Value of LIVER reported for the compound CCc1cc(C(N)=S)ccn1 [ETHIONAMIDE] is 11.3

###

Below, each entry is listed with its recorded Fbg.
species on record: Rattus norvegicus; experiment: Open TG-GATES - Regimen: Daily Repeat; format: toxicity, organism-based, Sprague-Dawley; design: regimen Daily Repeat, gender Male, age 6 weeks; details: in vivo, po, 0 mg/kg, […], tissue Blood, route gavage, dose level Control, time 7 day
Your answer should be a plain number; it is taken to be in mg/dL.

CC(=O)Oc1ccccc1C(=O)O [ASPIRIN]	211.2

Value of Fbg reported for the compound CSc1ccc2c(c1)N(CCC1CCCCN1C)c1ccccc1S2 (centres undefined) [THIORIDAZINE] is 241.2

Value of Fbg reported for the compound COc1ccc(Cc2nccc3cc(OC)c(OC)cc23)cc1OC [PAPAVERINE] is 299

Value of Fbg reported for the compound CO[C@H]1/C=C/O[C@@]2(C)Oc3c(C)c(O)c4c(O)c(c(/C=N/N5CCN(C)CC5)c(O)c4c3C2=O)NC(=O)/C(C)=C\C=C\[C@H](C)[C@H](O)[C@@H](C)[C@@H](O)[C@@H](C)[C@H](OC(C)=O)[C@@H]1C [RIFAMPIN] is 231.8
